# experiment: Absorption and emission properties of HBR-binding PYP variants in presence of HBR
# Type: physicochemical
# conditionParameters: variant with HBR, PBS pH 7.4
observationType: λem (nm)

{"molecule": "Clone 5: fluorescent HBR-binding PYP variant, SEQ ID NO: 5, residues 94-101 WRIPTECA (protein, Functional derivative of SEQ ID NO: 48 - Clone 5) MEHVAFGSEDIENTLAKMDDGQLDGLAFGAIQLDGDGNILQYNAAEGDITGRDPKQVIGKNFFKDVAPGTDSPEFYGKFKEGVASGNLNTMFEWRIPTECAPTKVKVHMKKALSGDSYWVFVKRV", "observationType": "λem", "testResult": 542}

Origin of values: patent US20170137473A1
